- procedure_details: Cytotoxicity against HK-2 cells assessed as inhibition of cell growth incubated for 1 hr by MTT assay
- Format: toxicity, cell-based
- stated_conditions: human
Residues, ends and D or L forms follow the SMILES beside them.
parameter_measured: IC50 at 1 h

Exam item: For CC(C)C[C@H](NC(=O)[C@H](CC(C)C)NC(=O)[C@H](CCCCN)NC(=O)[C@H](CCCCN)NC(=O)[C@H](CC(C)C)NC(=O)[C@H](CC(C)C)NC(=O)[C@H](CCCCN)NC(=O)[C@H](CCCCN)NC(=O)[C@H](CC(C)C)NC(=O)[C@H](CC(C)C)NC(=O)[C@H](CCCCN)NC(=O)[C@H](CCCCN)NC(=O)[C@H](CC(C)C)NC(=O)[C@H](CC(C)C)NC(=O)[C@@H](N)CCCCN)C(=O)N[C@@H](CCCCN)C(N)=O (H-KLLKKLLKKLLKKLLK-NH2) , what is its reported IC50 at 1 h?
Marked response: 7.36 µM

Exam item: CC(C)C[C@H](NC(=O)[C@H](CC(C)C)NC(=O)[C@H](CCCCN)NC(=O)[C@H](CCCCN)NC(=O)[C@H](CC(C)C)NC(=O)[C@H](CC(C)C)NC(=O)[C@H](CCCCN)NC(=O)[C@H](CCCCN)NC(=O)[C@H](CC(C)C)NC(=O)[C@H](CC(C)C)NC(=O)[C@H](CCCCN)NC(=O)[C@H](CCCCN)NC(=O)[C@H](CC(C)C)NC(=O)[C@@H](N)CCC(=O)O)C(N)=O (H-ELKKLLKKLLKKLL-NH2) ?
Marked response: 50.8 µM

* * *

- procedure_details: Therapeutic index, ratio of HC10 for mouse RBC to IC50 for cytotoxicity against human A549 cells
- Type: toxicity, cell-based
- stated_conditions: mouse RBC and A549 cells, read-out: TI
Non-standard residues stand in square brackets, D forms with d. Residues, ends and D or L forms follow the SMILES beside them. Dip = N[C@H](C(=O)O)C(c1ccccc1)c1ccccc1; Asu = N[C@@H](CCCCCC(=O)O)C(=O)O; Aad = N[C@@H](CCCC(=O)O)C(=O)O
Provide the recorded selectivity ratio for the entries that follow.
API doc: respond with a numeric literal and nothing else, no unit.

Exam item: For CC(C)C[C@H](NC(=O)[C@H](CC(C)C)NC(=O)[C@H](CCC(=O)O)NC(=O)[C@H](CCCCN)NC(=O)[C@H](CC(C)C)NC(=O)[C@H](CC(C)C)NC(=O)[C@H](CCCCN)NC(=O)[C@H](CCCCN)NC(=O)[C@H](CC(C)C)NC(=O)[C@H](CC(C)C)NC(=O)[C@H](CCCCN)NC(=O)[C@H](CCCCN)NC(=O)[C@H](CC(C)C)NC(=O)[C@@H](N)CC(C)C)C(N)=O (H-LLKKLLKKLLKELL-NH2) , what is its reported selectivity ratio?
Marked response: 0.474

Exam item: NCCCC[C@H](NC(=O)[C@@H](NC(=O)[C@H](Cc1c[nH]c2ccccc12)NC(=O)[C@H](CCCCN)NC(=O)[C@H](CCCCN)NC(=O)[C@H](Cc1c[nH]c2ccccc12)NC(=O)[C@H](Cc1c[nH]c2ccccc12)NC(=O)[C@H](CCCCN)NC(=O)[C@@H](N)CCCCN)C(c1ccccc1)c1ccccc1)C(N)=O [RUXOTEMITIDE] (H-KKWWKKW[Dip]K-NH2) ?
Marked response: 2.43

Exam item: CC(C)C[C@H](NC(=O)[C@H](CCC(=O)O)NC(=O)[C@H](CCCCN)NC(=O)[C@H](CCCCN)NC(=O)[C@H](CC(C)C)NC(=O)[C@H](CC(C)C)NC(=O)[C@H](CCCCN)NC(=O)[C@H](CCCCN)NC(=O)[C@H](CC(C)C)NC(=O)[C@H](CC(C)C)NC(=O)[C@H](CCCCN)NC(=O)[C@H](CCCCN)NC(=O)[C@H](CC(C)C)NC(=O)[C@@H](N)CC(C)C)C(N)=O (H-LLKKLLKKLLKKEL-NH2) ?
Marked response: 5.86

Exam item: CC(C)C[C@H](NC(=O)[C@H](CC(C)C)NC(=O)[C@H](CCCCN)NC(=O)[C@H](CCCCN)NC(=O)[C@H](CC(C)C)NC(=O)[C@H](CC(C)C)NC(=O)[C@H](CCCCN)NC(=O)[C@H](CCC(=O)O)NC(=O)[C@H](CC(C)C)NC(=O)[C@H](CC(C)C)NC(=O)[C@H](CCCCN)NC(=O)[C@H](CCCCN)NC(=O)[C@H](CC(C)C)NC(=O)[C@@H](N)CC(C)C)C(N)=O (H-LLKKLLEKLLKKLL-NH2) ?
Marked response: 2.49

Exam item: CC(C)C[C@H](NC(=O)[C@H](CCCCN)NC(=O)[C@H](CCCCN)NC(=O)[C@H](CC(C)C)NC(=O)[C@H](CC(C)C)NC(=O)[C@H](CCCCN)NC(=O)[C@H](CCCCN)NC(=O)[C@H](CC(C)C)NC(=O)[C@H](CC(C)C)NC(=O)[C@H](CCCCN)NC(=O)[C@H](CCCCN)NC(=O)[C@H](CC(C)C)NC(=O)[C@@H](N)CC(C)C)C(=O)N[C@@H](CCCCCC(=O)O)C(N)=O (H-LLKKLLKKLLKKL[Asu]-NH2) ?
Marked response: 13.5

Exam item: CC(C)C[C@H](NC(=O)[C@H](CC(C)C)NC(=O)[C@H](CCCCN)NC(=O)[C@H](CCCCN)NC(=O)[C@H](CC(C)C)NC(=O)[C@H](CCC(=O)O)NC(=O)[C@H](CCCCN)NC(=O)[C@H](CCCCN)NC(=O)[C@H](CC(C)C)NC(=O)[C@H](CC(C)C)NC(=O)[C@H](CCCCN)NC(=O)[C@H](CCCCN)NC(=O)[C@H](CC(C)C)NC(=O)[C@@H](N)CC(C)C)C(N)=O (H-LLKKLLKKELKKLL-NH2) ?
Marked response: 1.04

Exam item: CC(C)C[C@H](NC(=O)[C@H](CCCCN)NC(=O)[C@H](CCCCN)NC(=O)[C@H](CC(C)C)NC(=O)[C@H](CC(C)C)NC(=O)[C@H](CCCCN)NC(=O)[C@H](CCCCN)NC(=O)[C@H](CC(C)C)NC(=O)[C@H](CC(C)C)NC(=O)[C@H](CCCCN)NC(=O)[C@H](CCCCN)NC(=O)[C@H](CC(C)C)NC(=O)[C@@H](N)CC(C)C)C(=O)N[C@@H](CCCC(=O)O)C(N)=O (H-LLKKLLKKLLKKL[Aad]-NH2) ?
Marked response: 24.9

Exam item: CC(C)C[C@H](NC(=O)[C@H](CCCCN)NC(=O)[C@H](CCCCN)NC(=O)[C@H](CC(C)C)NC(=O)[C@H](CC(C)C)NC(=O)[C@H](CCCCN)NC(=O)[C@H](CCCCN)NC(=O)[C@H](CC(C)C)NC(=O)[C@H](CC(C)C)NC(=O)[C@H](CCCCN)NC(=O)[C@H](CCCCN)NC(=O)[C@H](CC(C)C)NC(=O)[C@@H](N)CC(C)C)C(=O)N[C@@H](CCC(=O)O)C(N)=O (H-LLKKLLKKLLKKLE-NH2) ?
Marked response: 21.1

Exam item: CC(C)C[C@H](NC(=O)[C@H](CCCCN)NC(=O)[C@H](CC(C)C)NC(=O)[C@H](CC(C)C)NC(=O)[C@H](CCCCN)NC(=O)[C@H](CCCCN)NC(=O)[C@H](CC(C)C)NC(=O)[C@H](CC(C)C)NC(=O)[C@H](CCCCN)NC(=O)[C@H](CCCCN)NC(=O)[C@H](CC(C)C)NC(=O)[C@H](CC(C)C)NC(=O)[C@@H](N)CCCCN)C(N)=O (H-KLLKKLLKKLLKL-NH2) ?
Marked response: 6.09

Exam item: CC(C)C[C@H](NC(=O)[C@H](CC(C)C)NC(=O)[C@H](CCCCN)NC(=O)[C@H](CCCCN)NC(=O)[C@H](CC(C)C)NC(=O)[C@H](CC(C)C)NC(=O)[C@H](CCCCN)NC(=O)[C@H](CCCCN)NC(=O)[C@H](CC(C)C)NC(=O)[C@H](CC(C)C)NC(=O)[C@H](CCC(=O)O)NC(=O)[C@H](CCCCN)NC(=O)[C@H](CC(C)C)NC(=O)[C@@H](N)CC(C)C)C(N)=O (H-LLKELLKKLLKKLL-NH2) ?
Marked response: 0.966

Exam item: CC(C)C[C@H](NC(=O)[C@H](CCCCN)NC(=O)[C@H](CCCCN)NC(=O)[C@H](CC(C)C)NC(=O)[C@H](CC(C)C)NC(=O)[C@H](CCCCN)NC(=O)[C@H](CCCCN)NC(=O)[C@H](CC(C)C)NC(=O)[C@H](CC(C)C)NC(=O)[C@H](CCCCN)NC(=O)[C@H](CCCCN)NC(=O)[C@H](CC(C)C)NC(=O)[C@@H](N)CC(C)C)C(=O)N[C@@H](CC(=O)O)C(N)=O (H-LLKKLLKKLLKKLD-NH2) ?
Marked response: 20
